Where do the numbers come from? From PubChem BioAssay AID1159580.

assay: chemical genetic growth profiling, strain panel (AID 1159580);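 further: tested at 20 µM; growth read once vehicle control cultures reached saturation at 30 °C; 1 = growth at the plate median or of vehicle wells; lower values mean less growth of the strain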; conditions: S. cerevisiae deletion strains, growth OD, locus YBR023C, strain chs3, active compounds read low
About 2,000 (36%) of roughly 5,500 compounds were called active. Roughly 18% stayed inconclusive and do not appear here. The list shows a part of the results.

| COMPOUND | normalized growth |
| --- | --- |
| ClC1=C(Cl)C2(Cl)C3C(Cl)C=CC3C1(Cl)C2(Cl)Cl (stereo not given) | 0.998 |
| C[N+](C)(C)CCOC(N)=O | 1.02 |
| C=C1C2CC[C@H]3[C@]4(C)C[C@H](OC5OC(CO)C(OS(=O)(=O)O)C(OS(=O)(=O)O)C5OC(=O)CC(C)C)C[C@@H](C(=O)O)[C@H]4CC[C@]3(C2)[C@H]1O (stereo not given in full) | 1.01 |
| CC(N)CCCC(C)(C)O (stereo not given) | 0.98 |
| ClC1=C(Cl)C2(Cl)C3C4C=CC(C4)C3C1(Cl)C2(Cl)Cl (stereo not given) | 0.997 |

* * *

Recorded normalized growth for the following compounds
experiment: chemical genetic growth profiling, strain panel (AID 1159580);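 further: tested at 20 µM; growth read once vehicle control cultures reached saturation at 30 °C; 1 = growth at the plate median or of vehicle wells; lower values mean less growth of the strain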; conditions: S. cerevisiae deletion strains, growth OD, locus YCL061C, strain MRC1, active compounds read low
Screen size: about 5,500 compounds; about 2,000 (36%) were called active. Not shown: some 18% with an inconclusive outcome. The list shows a part of the results.

| COMPOUND | normalized growth |
| --- | --- |
| NCC1CCC(C(=O)O)CC1 (configuration not stated) | 0.999 |
| CCOC(=O)C(C)(C)Oc1ccc(Cl)cc1 | 0.98 |
| CC(C)(C)c1ccc(NC(=O)Cc2cc(F)cc(F)c2)cc1 | 0.97 |
| CC(=O)OC(C)(C)[C@@H]1Cc2cc3ccc(=O)oc3cc2O1 | 0.978 |
| C=C1C2CC[C@H]3[C@]4(C)C[C@H](OC5OC(CO)C(OS(=O)(=O)O)C(OS(=O)(=O)O)C5OC(=O)CC(C)C)C[C@@H](C(=O)O)[C@H]4CC[C@]3(C2)[C@H]1O (some centres not stated) | 1.01 |
| CCO/C=C1\SC(=S)N(CCc2ccccc2)C1=O | 0.882 |
| CC(C)OC(=O)C(C)(C)Oc1ccc(C(=O)c2ccc(Cl)cc2)cc1 | 0.981 |

* * *

assay: chemical genetic growth profiling, strain panel (AID 1159580);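 further: tested at 20 µM; growth read once vehicle control cultures reached saturation at 30 °C; 1 = growth at the plate median or of vehicle wells; lower values mean less growth of the strain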; details: S. cerevisiae deletion strains, growth OD, locus YGL086W, strain mad1
About 2,000 (36%) of roughly 5,500 compounds were called active. Not shown: some 18% with an inconclusive outcome. No stated cut-off is given here; in the data, active means normalized growth mostly below about 0.91 (no sharp cut-off); inconclusive means no clear call, values can overlap the other calls; inactive means mostly above about 0.92. The list shows a part of the results.
Possible outcomes: true (1) = active, false (0) = inactive

| MOLECULE | ANSWER LABEL |
| --- | --- |
| CC(=O)[C@H]1CCC2C3CCC4=CC(=O)CC[C@]4(C)C3CC[C@@]21C (stereo partly drawn) | true (1) |
| CCOC(=O)C(Cc1ccc(O)cc1)NC(C)=O (stereo not drawn) | false (0) |
| CC(C[N+](C)(C)C)OC(N)=O (stereo not drawn) | false (0) |
| COc1cc2c(cc1OC)Cc1cc(OC)c(OC)cc1Cc1cc(OC)c(OC)cc1C2 | false (0) |
| C[C@]12CCC(=O)C=C1CCC1C2CC[C@@]2(C)C1CC[C@@H]2O (stereo partly drawn) | false (0) |
| CCOC(=O)C(C)(C)Oc1ccc(Cl)cc1 | false (0) |
| CCC(=O)O[C@H]1CCC2C3CCC4=CC(=O)CC[C@]4(C)C3CC[C@@]21C (stereo partly drawn) | true (1) |
| COc1cc(O)c(C(=O)/C=C/c2ccccc2)c(OC)c1 | true (1) |
| CCC(C)C(OC(C)=O)C(=O)OC1C(O)C2C3(C)C=CC(=O)C(C)(C)C3CC(OC(=O)C(O)C(C)C)C2(C)C23OC2CC(c2ccoc2)C13C (stereo not drawn) | false (0) |
| C[C@H]1OC(n2cc(F)c(=O)[nH]c2=O)C(O)[C@@H]1O (stereo partly drawn) | false (0) |
| C[N+](C)(C)CCOC(N)=O | false (0) |
| CC1/C(=N\O)C[C@@H]2C[C@H]1C2(C)C (stereo partly drawn) | false (0) |
| Cc1c(O)c(C(=O)CC(C)C)c2oc3c(C(=O)CC(C)C)c(O)c(C)c(O)c3c2c1O | false (0) |
| CC(=O)NC1SCCC1=O (stereo not drawn) | false (0) |
| CC1(C)OC(=O)NC1=O | false (0) |
| S=c1nc[nH]c2nc[nH]c12 | false (0) |
| CC[C@H](/C=C/C(C)C1CCC2C3CCC4=CC(=O)CC[C@]4(C)C3CC[C@]12C)C(C)C (stereo partly drawn) | false (0) |
| COc1cc2c(cc1OC)C(=O)OC2 | false (0) |
| N=c1ccn2c(n1)O[C@@H]1C2O[C@H](CO)[C@H]1O (stereo partly drawn) | false (0) |
| O=C(CC[N+](=O)[O-])OC[C@H]1O[C@@H](O)[C@H](OC(=O)CC[N+](=O)[O-])[C@@H](OC(=O)CC[N+](=O)[O-])[C@@H]1OC(=O)CC[N+](=O)[O-] | false (0) |
| CC(C)OC(=O)C(C)(C)Oc1ccc(C(=O)c2ccc(Cl)cc2)cc1 | false (0) |
| CNCCc1ccccn1 | false (0) |
| CC(Oc1ccccc1)C(=O)N[C@@H]1C(=O)N2[C@@H]1SC(C)(C)[C@@H]2C(=O)O (stereo partly drawn) | false (0) |
